Each entry below lists one item and its recorded solubility kinetic value.
conditions: buffer; pH 7.4; 200.0 µM

molecule | qual | solubility kinetic / µg/mL
Cl.c1ccc(CNc2c3c(nc4ccccc24)CCC3)cc1 | > | 46.6
NC(=O)CC[C@H](NC(=O)c1ccc(F)cc1)C(=O)OCC(=O)NCc1ccc2c(c1)OCO2 | = | 1.2
COc1ccc(-c2csc(NC(=O)Nc3ccccc3)n2)cc1 | = | 1.8
NS(=O)(=O)c1ccc(CNC(=O)Cc2cccs2)cc1 | = | 45.1
CCOc1ccc(NC(=O)NC2CCCCCCC2)cc1 | = | 0.9
Cc1ccc2nc(CCc3nc4ccc(C)cc4[nH]3)[nH]c2c1.Cl | = | 8.9
Cc1ccc(Nc2ncc3c(n2)CC(C)CC3=O)c(C)c1 (centres undefined) | > | 42.2
COc1ccc(OCC(=O)NCCCn2ccnc2)cc1.Cl | > | 48.9
O=C1CN(C(=O)c2ccc(Cl)c([N+](=O)[O-])c2)c2ccccc2N1 | > | 49.8
CC(=O)c1cc(C(C)=O)c(C)nc1C | > | 28.7
N/C(=N/OC(=O)c1ccc(Cl)cc1)c1ncc([N+](=O)[O-])s1 | = | 0.2
O=S(=O)(Cc1ccccc1)Nc1ccccc1Br | = | 40.6
COCC(C)NC(C(=O)Nc1cccc(C(C)=O)c1)c1ccccc1 (centres undefined) | > | 51.1
CCc1ccccc1NC(=O)C1CC(c2ccc(OC)cc2)=NO1 (centres undefined) | = | 45.3
COC(=O)COc1c(/C=C\c2nc(O)c([N+](=O)[O-])c(=O)[nH]2)cccc1OC | > | 56.6
Cn1ccnc1SCC(=O)N1CCc2ccccc21 | = | 38.9
CCOc1cc(/C=C\c2nc(O)c([N+](=O)[O-])c(=O)[nH]2)ccc1OC(C)C | > | 54.2
CC(C)C(=O)Nc1ccc([N+](=O)[O-])c(C(F)(F)F)c1 | > | 41.4
Cc1ccc(NC(=O)CN(C)C(=O)Nc2ccc(C)cc2)cc1 | = | 4.9
CCN1C(=O)C(=Cc2cc(C)n(C3CC3)c2C)C(=O)N(CC)C1=S | = | 2.8
Cl.c1cncc(CNCc2ccco2)c1 | > | 33.7
O=C1CCc2ccc(OCCCCN3CCN(c4cccc(Cl)c4Cl)CC3)cc2N1 | < | 0.3
Cc1cnc(C(=O)OCC(=O)c2ccc(-c3ccccc3)cc2)cn1 | = | 7.7
CC1CCN(C(=O)c2ccc3c(c2)OCO3)CC1 | = | 36.9

----------
details: buffer; pH 7.4; 200.0 µM
Kindly return Criterion met if reported solubility kinetic is no lower than 30 µg/mL; return Criterion not met if it is lower.

compound | class-label
Cc1cc(=O)[nH]c2ccc(S(=O)(=O)NC3CCCCC3)cc12 | Criterion not met
CC(C)(C)c1ccc(C(=O)n2cnc3ccccc32)cc1 | Criterion met
O=C(O)/C=C/C(=O)Nc1ccc(S(=O)(=O)Nc2nccs2)cc1 | Criterion met
COc1ccccc1NC(=O)c1c(O)c2ccccc2[nH]c1=O | Criterion not met
COc1ccc(CNC(=S)Nc2cccc(F)c2)cc1 | Criterion not met
CNCCc1ccccc1 | Criterion not met
CCCC(=O)NNC(=O)CCC(=O)Nc1ccccc1Cl | Criterion met
O=Cc1ccc(C(=O)OCC(=O)NC(=O)Nc2ccccc2F)cc1 | Criterion not met
Cc1ccccc1OCC(=O)NC1CCCCCCC1 | Criterion not met
Cc1[nH]c2ccc(F)cc2c1CCN1C(=O)OC(C)(C)C1(C)O (stereo not given) | Criterion met
COc1cc2ccccc2cc1C(=O)Nc1ccccc1C | Criterion not met
COc1cc2cc(C(=O)NCCc3ccccc3)[nH]c2cc1OC | Criterion not met
Cc1ccsc1C(=O)C1CCCN(Cc2cnc(N)nc2)C1 (stereo not given) | Criterion met
O=C(NC(=S)NCc1ccc(Cl)cc1)c1ccco1 | Criterion not met
N#C/C(=C\N1CCOCC1)S(=O)(=O)c1ccc(Cl)cc1 | Criterion met
O=C1NS(=O)c2cc([N+](=O)[O-])cc([N+](=O)[O-])c21 (stereo not given) | Criterion met
Cc1nc2ccccc2c(=O)n1-c1cc(F)ccc1F | Criterion met
CCc1ccccc1NC(=S)N1CCN(c2ccccc2F)CC1 | Criterion not met
O=C(Cc1c(F)cccc1Cl)N(Cc1ccccc1)c1ccccn1 | Criterion met
Cc1cccc(N2CCc3c2nc2ccc(Br)cc2c3N)c1.Cl | Criterion not met
O=C(CSc1nc2ccccc2c(=O)n1CCCN1CCOCC1)Nc1ccc(F)c(Cl)c1 | Criterion not met
O=[N+]([O-])CC(c1ccccc1)P(=O)(c1ccccc1)c1ccccc1 (stereo not given) | Criterion not met
CC(C)CN1CCN(Cc2c[nH]c3ccccc23)CC1CCO (stereo not given) | Criterion met
O=C(/C=C\c1ccco1)NC(=S)Nc1ccccc1O | Criterion met
CN1CCN(c2ccccc2NC(=O)c2c(F)cccc2F)CC1 | Criterion met

----------
details: buffer; pH 7.4; 200.0 µM

compound | unit-symbol | qual | solubility kinetic
CC(C)=C(NC(=O)c1ccccc1)C(=O)Nc1ccc(C(=O)O)cc1 | µg/mL | > | 50.8
COc1cc(C#N)c(NC(=O)CN2CCC(C(N)=O)CC2)cc1OC | µg/mL | > | 52
Nc1ccccc1-c1nnc(SCC(=O)Nc2ccccc2OC(F)F)[nH]c1=O | µg/mL | > | 62.9
COc1ccc(CCOC(=O)c2ccc(N)c([N+](=O)[O-])c2)cc1 | µg/mL | = | 1.1
O=C(NCCCn1ccnc1)/C(=C/c1cccnc1)NC(=O)c1ccco1 | µg/mL | > | 54.8
COc1ccc(C(=O)N2CCC3(CC2)OCCO3)cc1 | µg/mL | > | 41.6
COc1ccc(NC(C)=O)cc1NC(=O)c1ccc2ccccc2c1 | µg/mL | = | 13
O=C(CCc1ccccc1)Oc1ccccc1[N+](=O)[O-] | µg/mL | = | 5.2
O=C1NC2(CCCCC2)C(=O)N1Cc1cc(=O)n2ccsc2n1 | µg/mL | = | 44.7
CC(=O)c1ccc(NC(=O)N2CCN(c3ccc(C)cc3)C(C)C2)cc1 (stereo unspecified) | µg/mL | = | 39.4
Cc1nc2cc(NC(=O)c3ccc(Cl)cc3)ccc2n1C | µg/mL | = | 1

----------
conditions: buffer; pH 7.4; 200.0 µM

compound | qual | solubility kinetic [µg/mL]
CC(C)C[C@H](NC(=O)N1CCCCCC1)C(=O)O | > | 38.5
CCN(C(=O)Nc1cccc(Cl)c1)c1ccccc1 | = | 18.6
Cc1ccc(S(=O)(=O)Nc2cc3c4c(c2)CC(=O)N4CCC3)cc1 | = | 8.6
Cc1cc(CSc2ccccc2C(=O)O)on1 | > | 37.4
CC1CN=C(N(C(=O)Nc2ccccc2)C(C)c2ccccc2)S1 (stereo unspecified) | = | 27
Cc1cc(Cl)ccc1NC(=S)NCCc1ccc(Cl)cc1 | < | 0.4

----------
# Lookup of reported solubility kinetic keyed by entry
conditions: buffer; pH 7.4; 200.0 µM

compound | unit-symbol | qual | solubility kinetic
CC(=O)N1CCN(CC(=O)Nc2ccc(C#N)c(Cl)c2)CC1 | µg/mL | > | 48.1
O=C(NC1CC1)c1nc(Cn2ccc([N+](=O)[O-])n2)no1 | µg/mL | > | 41.7
Cc1ccc(C(=O)OCC(=O)NCCc2ccc(F)cc2)cc1S(=O)(=O)N1CCOCC1 | µg/mL | = | 57.2
C=CCN=C1S/C(=C\N(C)C)C(=O)N1S(=O)(=O)c1ccc(C)cc1 | µg/mL | = | 2.8
CC1CN(CC(=O)Nc2ccc([N+](=O)[O-])cc2Br)CC(C)O1 (centres undefined) | µg/mL | = | 6.4
CN(Cc1ccccc1N1CCCC1)C(=O)c1cc2ccccc2o1 | µg/mL | = | 11.1
Cc1ccccc1NC(=O)COC(=O)C1C2CC3OC(=O)C1C3C2 (centres undefined) | µg/mL | > | 49.4
O=C(CN1C(=O)c2cccc3cccc(c23)C1=O)NCCCO | µg/mL | > | 46.8
O=C(OCC(=O)N1CCOCC1)c1ccc(Br)cc1 | µg/mL | > | 49.2
Cc1ccc(-n2c(O)c(C=NCCCn3ccnc3)c(=O)[nH]c2=O)cc1 | µg/mL | > | 53
COc1ccc(OC)c(N/C(C)=C/C(=O)c2ccncc2)c1 | µg/mL | = | 36.9
Cc1ccc(S(=O)(=O)N(C)C)cc1NC(=O)C(C)OC(=O)C1CCCCC1 (centres undefined) | µg/mL | > | 59.5
Brc1ccc2ncnc(NCc3cccnc3)c2c1 | µg/mL | = | 34.3
CN(C)c1cccc(C(=O)Nc2ccc(S(=O)(=O)Nc3nccs3)cc2)c1 | µg/mL | > | 60.4
Cc1ccc(S(=O)(=O)n2cccc2C)cc1 | µg/mL | = | 5.1
CCOC(=O)N1CCN(C(=O)C(C)c2ccc([N+](=O)[O-])cc2)CC1 (centres undefined) | µg/mL | > | 50.3
COCCCNc1oc(/C=C/c2ccccc2)nc1C#N | µg/mL | = | 3.7
CC1(C)CC(=O)C2=C(C1)NC(=O)NC2c1ccccc1 (centres undefined) | µg/mL | = | 39.9
CSc1nc(C)cc(Oc2ccc(OCC(N)=O)nn2)n1 | µg/mL | > | 46.1
Cc1cnc(C(=O)OCC(=O)Nc2cc(S(=O)(=O)N3CCOCC3)ccc2Cl)cn1 | µg/mL | > | 68.2
CCS(=O)(=O)c1nc2ccccc2n1Cc1ccccn1 | µg/mL | > | 45.2
CCCc1cc(=O)[nH]c(SCC(=O)NC2CC2)n1 | µg/mL | > | 40.1
Cc1cccc(N(C)S(=O)(=O)c2c(C)noc2C)c1 | µg/mL | = | 37.1
O=C(CN1CCN(S(=O)(=O)c2ccc(Cl)cc2)CC1)N1CCCC1 | µg/mL | = | 48.7
